Values compiled from patent US9822115B2.

TARGET_OR_SYSTEM: Class A beta-lactamase, K. pneumoniae ATCC 700603 (SHV 18) (Klebsiella pneumoniae, UniProt P0AD64, E235K/G234A/R39S)
Construct: preincubated mixture of crude enzyme and the agents; endogenous in cells; host or cells: K. pneumoniae ATCC 700603
Sequence (P0AD64 22-286 R39S/G234A/E235K): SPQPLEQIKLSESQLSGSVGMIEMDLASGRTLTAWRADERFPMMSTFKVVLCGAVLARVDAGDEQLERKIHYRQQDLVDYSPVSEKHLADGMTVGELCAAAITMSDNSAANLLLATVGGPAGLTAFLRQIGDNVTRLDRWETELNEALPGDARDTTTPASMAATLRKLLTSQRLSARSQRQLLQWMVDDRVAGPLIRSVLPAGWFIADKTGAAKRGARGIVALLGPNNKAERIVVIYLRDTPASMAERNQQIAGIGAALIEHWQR
EXPERIMENT: biochemical
pIC50: −log10 of the molar value.
VALUE_TYPE: pIC50

mol=CNCCOc1cccc(CC(=O)NNC(=O)[C@@H]2CC[C@@H]3CN2C(=O)N3OS(=O)(=O)O)c1 value_type=pIC50 assay_result=7.44
mol=CC(C)[C@@H](N)COc1ccc(CC(=O)NNC(=O)[C@@H]2CC[C@@H]3CN2C(=O)N3OS(=O)(=O)O)c(F)c1 value_type=pIC50 assay_result=7.10
mol=C[C@H](N)COc1ccccc1CC(=O)NNC(=O)[C@@H]1CC[C@@H]2CN1C(=O)N2OS(=O)(=O)O value_type=pIC50 assay_result=6.96
mol=CCOc1ccccc1CC(=O)NNC(=O)[C@@H]1CC[C@@H]2CN1C(=O)N2OS(=O)(=O)O value_type=pIC50 assay_result=7.31

---

TARGET_OR_SYSTEM: Class A beta-lactamase, K. pneumoniae ATCC 700603 (SHV 18) (Klebsiella pneumoniae, UniProt P0AD64, E235K/G234A/R39S)
Construct: preincubated mixture of crude enzyme and the agents; endogenous in cells; host or cells: K. pneumoniae ATCC 700603
EXPERIMENT: biochemical
VALUE_TYPE: IC50 (nM)

mol=Nc1ccccc1CC(=O)NNC(=O)[C@@H]1CC[C@@H]2CN1C(=O)N2OS(=O)(=O)O assay_result=35
mol=O=C(Cc1ccc(O[C@H]2CCNC2)cc1)NNC(=O)[C@@H]1CC[C@@H]2CN1C(=O)N2OS(=O)(=O)O assay_result=47
mol=O=C(Cc1ccc(O[C@H]2CCNC2)cc1F)NNC(=O)[C@@H]1CC[C@@H]2CN1C(=O)N2OS(=O)(=O)O assay_result=15.1

---

TARGET_OR_SYSTEM: Class A beta-lactamase, K. pneumoniae ATCC 700603 (SHV 18) (Klebsiella pneumoniae, UniProt P0AD64, E235K/G234A/R39S)
Construct: preincubated mixture of crude enzyme and the agents; endogenous in cells; host or cells: K. pneumoniae ATCC 700603
EXPERIMENT: biochemical
VALUE_TYPE: IC50 (nM)

compound="C[C@@H](N)COc1ccccc1CC(=O)NNC(=O)[C@@H]1CC[C@@H]2CN1C(=O)N2OS(=O)(=O)O [Example 3]" readout_unit=nM assay_result=80
compound="O=C(Cc1ccccc1OC[C@@H]1CCCN1)NNC(=O)[C@@H]1CC[C@@H]2CN1C(=O)N2OS(=O)(=O)O [Example 56]" readout_unit=nM assay_result=142
compound="O=C(Cc1ccccc1)NNC(=O)[C@@H]1CC[C@@H]2CN1C(=O)N2OS(=O)(=O)O [Example 4]" readout_unit=nM assay_result=19

---

Test system: K. pneomoniae S48 (NDM, SHV, TEM)
EXPERIMENT: Antibacterial activity, MIC by agar dilution (CLSI)
Assay type: cell-based, K. pneumoniae
STUDY_CONDITIONS: Klebsiella pneumoniae, 18 h; Table 2; K. pneomoniae S48 (NDM, SHV, TEM); read-out: MIC
Text: The biological activity of representative compounds according to the invention against various bacterial strains was investigated. […] The strains selected for study included E. coli NCTC 13353 producing CTX-M15 and OXA-1 beta-lactamase enzymes; K. pneumoniae H521 producing KPC, SHV, TEM beta-lactamase enzymes; and K. pneumoniae S48 producing NDM, SHV, TEM beta-lactamase enzymes. The activities are expressed as Minimum Inhibitory Concentrations (MICs) (mcg/ml).
Listing: MIC of selected compounds
VALUE_TYPE: MIC (µg/mL)

mol=CN(C)c1ccc(CC(=O)NNC(=O)[C@@H]2CC[C@@H]3CN2C(=O)N3OS(=O)(=O)O)cc1 target_or_system="K. pneomoniae S48 (NDM, SHV, TEM)" readout_unit=µg/mL assay_result=8
mol=N#Cc1ccc(CC(=O)NNC(=O)[C@@H]2CC[C@@H]3CN2C(=O)N3OS(=O)(=O)O)cc1 target_or_system="K. pneomoniae S48 (NDM, SHV, TEM)" readout_unit=µg/mL assay_result=1
mol=CC(C)(C)OC(=O)CC(=O)Oc1ccc(CC(=O)NNC(=O)[C@@H]2CC[C@@H]3CN2C(=O)N3OS(=O)(=O)O)cc1 target_or_system="K. pneomoniae S48 (NDM, SHV, TEM)" readout_unit=µg/mL assay_result=2
mol=O=C(CCCc1ccccc1)NNC(=O)[C@@H]1CC[C@@H]2CN1C(=O)N2OS(=O)(=O)O target_or_system="K. pneomoniae S48 (NDM, SHV, TEM)" readout_unit=µg/mL assay_result=32
mol=CC(C)(C)C(=O)Oc1ccc(CC(=O)NNC(=O)[C@@H]2CC[C@@H]3CN2C(=O)N3OS(=O)(=O)O)cc1 target_or_system="K. pneomoniae S48 (NDM, SHV, TEM)" readout_unit=µg/mL assay_result=32
